System: ACHN renal
Assay: NCI tumour cell line growth inhibition, 48 h; in the data active = GI50 below about 0.43 µM; inactive = the rest
Output constraint: value belongs to 1.0 for active, 0.0 for inactive

CN(C)CCCn1c2c(c3ccc([N+](=O)[O-])cc3c1=O)C(=O)c1ccccc1-2 ... 0.0
Oc1ccc(-c2nc(-c3ccc4oc5ccc(-c6[nH]c(-c7ccc(O)cc7)nc6-c6ccccc6)cc5c4c3)c(-c3ccccc3)[nH]2)cc1 ... 0.0

Hi, do you know how CCOC(=O)C(Cc1ccc(N(CCCl)CCCl)cc1)NC(=O)C(CC(C)C)NC(C)=O (stereo not drawn) came out in this test?
1.0

COc1ccc2c(c1)CCC1C2CCC2(C)C1CC[C@@]2(O)CNC(=O)/C=C/c1ccc(O)c(O)c1 (stereo partly drawn) ?
0.0

Another: CCOC(=O)c1ccccc1NC(c1ccccc1)c1ccc2cccnc2c1O (stereo not drawn)
0.0

Another compound: "O=C(CCc1nnc2s/c(=C\c3ccc(Cl)cc3Cl)c(=O)n12)Nc1cc(Cl)c(Cl)cc1Cl"
0.0

Now consider Cc1ccc(S(=O)(=O)NC(CCCCN)C(=O)CCl)cc1 (stereo not drawn) .
0.0

Lookup "COC(=O)[C@@H](C)C[C@H](Cc1ccccc1)NC(=O)c1cccc([C@@H](C[C@H](C(C)C)N(C)C(=O)[C@@H](NC(=O)[C@H]2CCCCN2C)C(C)C)OC(C)=O)n1"
1.0
